test system: LPS-induced TNFα release in THP-1 cells; test: LPS-induced TNFα release in THP-1 cells; assay type: cell-based; conditions: Homo sapiens; THP-1 cells, 3 μg/mL LPS, 4 hr; read-out: LPS/TNFα THP-1 IC50
MEASUREMENT TYPE: IC50

Req: Which measured IC50 value corresponds to "Cc1ccc(-n2nc(C(C)(C)C)cc2NC(=O)Nc2ccc(OCCN3CCOCC3)c3ccccc23)cc1" ?
Resp: 4.1 nM

###

test system: LPS-induced TNFα release in d-U937 cells; test: LPS-induced TNFα release in d-U937 cells; assay type: cell-based; conditions: Homo sapiens, dU937, 4 h, read-out: LPS/TNFα d-U937 REC50 (nM)
MEASUREMENT TYPE: EC50 (nM)
# output: bare number, implied unit nM

Req: # input molecule: "CC(=O)Nc1cc(Oc2ccc(NC(=O)Nc3cc(C(C)(C)C)nn3-c3ccc(C)cc3)c3ccccc23)ccn1" ; wanted: its EC50
Resp: 1

###

system: LPS-induced TNFα release in d-U937 cells; assay: LPS-induced TNFα release in d-U937 cells; assay type: cell-based; conditions: Homo sapiens, dU937, 4 h; read-out: LPS/TNFα d-U937 REC50
MEASUREMENT TYPE: pEC50
Reminder that pEC50 is minus the log10 of a molar concentration.

Req: Which measured pEC50 value corresponds to "Cc1ccc(-n2nc(C(C)(C)C)cc2NC(=O)Nc2ccc(OCCN3CCOCC3)c3ccccc23)cc1" ?
Resp: 8.32
